Assay name: UV absorption properties (λmax, molar extinction coefficient ε, efficiency E 1%, 1 cm)
Format: physicochemical
Test parameters: Table 6A
Field 'label' (enum: condition met / condition not met). Set to condition met when ε is strictly under 20000 M⁻¹ cm⁻¹; else condition not met.

Reference set, count: 5
{"Molecule": "CC(C)CN1C=C(C(=O)c2ccc(-c3ccccc3)cc2)C(C)(C)CC1 [drawing 86]", "Qualitative label": "condition met"}
{"Molecule": "CC(C)CN1C=C(C(=O)c2ccc(Br)cc2)C(C)(C)CC1 [drawing 84]", "Qualitative label": "condition not met"}
{"Molecule": "CC(C)CN1C=C(C(=O)c2ccc(N(C)C)cc2)C(C)(C)CC1 [drawing 83]", "Qualitative label": "condition met"}
{"Molecule": "COc1ccc(C(=O)C2=CN(CC(C)C)CCC2(C)C)c(OC)c1 [drawing 91]", "Qualitative label": "condition met"}
{"Molecule": "CC(C)CN1C=C(C(=O)c2ccc(C(=O)c3ccccc3)cc2)C(C)(C)CC1 [drawing 90]", "Qualitative label": "condition met"}

Just wondering, is ε of CC(C)CN1C=C(C(=O)c2ccc3c(c2)CCO3)C(C)(C)CC1 [drawing 85] below 20000 M⁻¹ cm⁻¹?
condition not met

Just wondering, is ε of CC(C)CN1C=C(C(=O)c2cc(C(=O)C3=CN(CC(C)C)CCC3(C)C)cc(C(=O)C3=CN(CC(C)C)CCC3(C)C)c2)C(C)(C)CC1 [drawing 89] below 20000 M⁻¹ cm⁻¹?
condition not met

Just wondering, is ε of CC(C)CN1C=C(C(=O)c2ccccc2)C(C)(C)CC1 [drawing 87] below 20000 M⁻¹ cm⁻¹?
condition met
